# target.of.assay: Glucocorticoidrezeptor (Rattus norvegicus)
# Construct: Rezeptoren im Cytosol aus tierischen Target-Organen; from tissue; host or cells: thymus cytosol of adrenalectomised rat
# Sequence (P06536 whole entry): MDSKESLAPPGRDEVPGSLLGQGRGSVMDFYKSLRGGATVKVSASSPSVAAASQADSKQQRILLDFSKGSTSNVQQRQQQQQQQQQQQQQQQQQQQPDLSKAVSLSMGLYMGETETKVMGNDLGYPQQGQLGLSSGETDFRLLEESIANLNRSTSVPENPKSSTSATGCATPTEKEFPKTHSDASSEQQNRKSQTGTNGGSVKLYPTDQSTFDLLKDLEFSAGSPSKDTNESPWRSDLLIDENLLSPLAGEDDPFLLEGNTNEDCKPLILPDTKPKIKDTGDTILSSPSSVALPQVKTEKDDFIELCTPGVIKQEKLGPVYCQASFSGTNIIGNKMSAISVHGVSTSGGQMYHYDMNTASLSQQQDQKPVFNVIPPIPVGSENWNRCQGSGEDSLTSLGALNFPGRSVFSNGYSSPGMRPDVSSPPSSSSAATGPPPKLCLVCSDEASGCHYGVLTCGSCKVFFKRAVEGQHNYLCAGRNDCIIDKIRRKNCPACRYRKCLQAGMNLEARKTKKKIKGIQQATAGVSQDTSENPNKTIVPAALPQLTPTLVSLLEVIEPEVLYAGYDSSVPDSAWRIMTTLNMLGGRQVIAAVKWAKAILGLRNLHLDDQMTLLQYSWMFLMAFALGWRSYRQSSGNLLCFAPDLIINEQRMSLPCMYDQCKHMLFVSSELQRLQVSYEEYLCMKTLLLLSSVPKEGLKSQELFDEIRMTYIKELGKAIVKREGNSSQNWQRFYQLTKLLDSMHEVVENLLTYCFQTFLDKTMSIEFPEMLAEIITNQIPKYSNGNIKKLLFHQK
# procedure.text: Receptor binding affinity, competitive binding with 3H-Dexamethason in thymus cytosol
# Parameters: species or system Ratte
# run.conditions: thymus cytosol of adrenalectomised rat; tracer 3H-Dexamethason 20nM; 18 h at 0-4°C; quotient of IC50 values x 100 %
measurement.label: relative molare Bindungs-affinität RBA (%) zum Glucocorticoidrezeptor Dexamethason = 100 %

compound.structure: CC#C[C@]1(O)CC[C@H]2[C@@H]3CCC4=CC(=O)CCC4=C3[C@@H](c3ccc(N(C)C)cc3)C[C@@]21C
target.of.assay: Glucocorticoidrezeptor (Rattus norvegicus)
readout.value: 685
//
compound.structure: CCNC(=O)O/N=C/c1ccc([C@H]2C[C@@]3(C)[C@@H](CC[C@@]3(O)COC)[C@@H]3CCC4=CC(=O)CC[C@]45O[C@]235)cc1
target.of.assay: Glucocorticoidrezeptor (Rattus norvegicus)
readout.value: 13
//
compound.structure: COC[C@]1(OC)CC[C@H]2[C@@H]3CCC4=CC(=O)CC[C@]45O[C@]35[C@@H](c3ccc(/C=N/O)cc3)C[C@@]21C
target.of.assay: Glucocorticoidrezeptor (Rattus norvegicus)
readout.value: 12
//
compound.structure: COC[C@]1(OC)CC[C@H]2[C@@H]3CCC4=CC(=O)CCC4=C3[C@@H](c3ccc(/C=N/O)cc3)C[C@@]21C
target.of.assay: Glucocorticoidrezeptor (Rattus norvegicus)
readout.value: 77
//
compound.structure: CCOC(=O)O/N=C/c1ccc([C@H]2C[C@@]3(C)[C@@H](CC[C@]3(COC)OC)[C@@H]3CCC4=CC(=O)CC[C@]45O[C@]235)cc1
target.of.assay: Glucocorticoidrezeptor (Rattus norvegicus)
readout.value: 15

----------
# target.of.assay: Progesteronrezeptor (Oryctolagus cuniculus)
# Construct: Rezeptoren im Cytosol aus tierischen Target-Organen; from tissue; host or cells: uterus cytosol of estradiol-primed rabbit
# Sequence (P06186 1-930): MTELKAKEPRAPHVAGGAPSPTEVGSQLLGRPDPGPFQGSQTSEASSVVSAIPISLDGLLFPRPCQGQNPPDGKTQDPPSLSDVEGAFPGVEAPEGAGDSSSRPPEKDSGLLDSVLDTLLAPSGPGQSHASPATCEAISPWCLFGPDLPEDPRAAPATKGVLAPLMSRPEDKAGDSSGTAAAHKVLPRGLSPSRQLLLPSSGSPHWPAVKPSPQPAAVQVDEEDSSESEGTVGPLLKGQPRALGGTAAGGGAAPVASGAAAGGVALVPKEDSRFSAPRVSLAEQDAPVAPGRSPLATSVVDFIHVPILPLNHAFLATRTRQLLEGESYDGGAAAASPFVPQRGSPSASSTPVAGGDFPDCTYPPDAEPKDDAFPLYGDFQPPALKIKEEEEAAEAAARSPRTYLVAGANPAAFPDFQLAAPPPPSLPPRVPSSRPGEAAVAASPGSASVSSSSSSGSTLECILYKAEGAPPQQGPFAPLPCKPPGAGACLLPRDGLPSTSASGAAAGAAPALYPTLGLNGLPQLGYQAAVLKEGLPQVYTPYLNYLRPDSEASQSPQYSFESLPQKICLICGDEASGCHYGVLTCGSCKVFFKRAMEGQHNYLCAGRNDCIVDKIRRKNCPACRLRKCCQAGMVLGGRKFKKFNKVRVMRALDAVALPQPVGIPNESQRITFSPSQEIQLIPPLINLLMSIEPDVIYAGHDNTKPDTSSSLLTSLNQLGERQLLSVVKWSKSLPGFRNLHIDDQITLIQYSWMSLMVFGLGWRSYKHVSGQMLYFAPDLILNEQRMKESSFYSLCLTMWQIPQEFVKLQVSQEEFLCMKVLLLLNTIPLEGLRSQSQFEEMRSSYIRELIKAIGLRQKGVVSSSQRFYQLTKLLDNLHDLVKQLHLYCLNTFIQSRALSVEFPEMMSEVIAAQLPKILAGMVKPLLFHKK
# procedure.text: Receptor binding affinity, competitive binding with 3H-ORG 2058 in uterus cytosol
# Set-up: species or system Kaninchen
# run.conditions: uterus cytosol of estradiol-primed rabbit; tracer 3H-ORG 2058 5nM; 18 h at 0-4°C; quotient of IC50 values x 100 %
measurement.label: relative molare Bindungs-affinität RBA (%) zum Progesteronrezeptor Progesteron = 100 %

molecule: CCNC(=O)O/N=C/c1ccc([C@H]2C[C@@]3(C)[C@@H](CC[C@]3(COC)OC)[C@@H]3CCC4=CC(=O)CC[C@]45O[C@]235)cc1 [17 ( J 1131)]
readout.value: 68
--
molecule: CCOC(=O)O/N=C/c1ccc([C@H]2C[C@@]3(C)[C@@H](CC[C@]3(COC)OC)[C@@H]3CCC4=CC(=O)CC[C@]45O[C@]235)cc1 [9 ( J 1120)]
readout.value: 63
--
molecule: CCNC(=O)O/N=C/c1ccc([C@H]2C[C@@]3(C)[C@@H](CC[C@@]3(O)COC)[C@@H]3CCC4=CC(=O)CC[C@]45O[C@]235)cc1 [16 ( J 1186)]
readout.value: 64
--
molecule: COC[C@]1(O)CC[C@H]2[C@@H]3CCC4=CC(=O)CC[C@]45O[C@]35[C@@H](c3ccc(/C=N\O)cc3)C[C@@]21C [4 ( J 1182)]
readout.value: 29
--
molecule: COC[C@]1(O)CC[C@H]2[C@@H]3CCC4=CC(=O)CC[C@]45O[C@]35[C@@H](c3ccc(/C=N/O)cc3)C[C@@]21C [3 ( J 1116)]
readout.value: 47
--
molecule: COC[C@]1(OC)CC[C@H]2[C@@H]3CCC4=CC(=O)CC[C@]45O[C@]35[C@@H](c3ccc(/C=N\O)cc3)C[C@@]21C [2 ( J 1160)]
readout.value: 49
--
molecule: COC[C@]1(OC)CC[C@H]2[C@@H]3CCC4=CC(=O)CC[C@]45O[C@]35[C@@H](c3ccc(/C=N/OC(C)=O)cc3)C[C@@]21C [5 ( J 1130)]
readout.value: 59
--
molecule: CN(C)c1ccc([C@H]2C[C@]3(C)[C@@H](CC[C@]3(O)CCCO)[C@@H]3CCC4=CC(=O)CCC4=C32)cc1 [ZK 98299, Onapriston]
readout.value: 22
